- EXPERIMENT SUMMARY: solvent given as SMILES
- EXPERIMENTAL CONDITIONS: in ClCCl
The following compounds are shown together with reported absorption maximum values.
Reply with just the number (in nm).

1) CC1=C(C#Cc2ccc(B(c3c(C)cc(C)cc3C)c3c(C)cc(C)cc3C)cc2)C(C)=[N+]2C1=C(c1ccccc1)c1c(C)c(C#Cc3ccc(B(c4c(C)cc(C)cc4C)c4c(C)cc(C)cc4C)cc3)c(C)n1[B-]2(F)F: 576

// switching to the query compound
Enquiry: Look up absorption maximum of CCCCCCCCCCC1(CCCCCCCCCC)c2cc(N3C(=O)c4ccc5c6ccc7c8c(ccc(c9ccc(c4c59)C3=O)c86)C(=O)N(c3ccc4c(c3)C(CCCCCCCCCC)(CCCCCCCCCC)c3cc(N(c5ccccc5)c5ccccc5)ccc3-4)C7=O)ccc2-c2ccc(N(c3ccccc3)c3ccccc3)cc21 and report it.
Return: 527

====

Each record here notes measured absorption maximum.
- EXPERIMENT SUMMARY: solvent given as SMILES
- EXPERIMENTAL CONDITIONS: in CCCCCCCC
Numeric only. Scale: nm

A selection of reference data follows.
1) COC(=O)C(Cc1ccc2oc(-c3ccc(N(c4ccccc4)c4ccccc4)cc3)nc2c1)NC(=O)OC(C)(C)C (centres undefined): 361.55
2) CCC1=C(C)C2=C(C)c3c(C)c(CC)c(C)n3[B-](F)(F)[N+]2=C1C: 521.2
3) C(=C\c1cccc2ccccc12)/c1ccc(-c2nnc(-c3ccc(-c4cc5ccccc5s4)cc3)o2)cc1: 354

Next up:
Enquiry: Answer with reported absorption maximum of FC(F)(F)c1ccc(/C=C/c2ccc(-c3nnc(-c4ccc(-c5cc6ccccc6s5)cc4)o3)cc2)cc1
Return: 337

====

- EXPERIMENT SUMMARY: solvent given as SMILES
- EXPERIMENTAL CONDITIONS: in CN(C)C=O
In plain terms, low absorption maximum, meaning strictly below 500 nm, gives TRUE, and everything else gives FALSE.

Record excerpt, results attached:
1) CCCCCCCCCCCCN1C(=O)c2ccc3c4ccc5c6c(ccc(c7ccc(c2c37)C1=O)c64)C(=O)NC5=O: FALSE
2) [C-]#[N+]c1ccc(-c2ccc(N(C)C)cc2)cc1: TRUE

Enquiry: Check if absorption maximum falls below 500 nm for CCN(CC)c1ccc2cc(/C=C/C3=CC(/C=C/c4cc5ccc(N(CC)CC)cc5oc4=O)=[O+][B-](F)(F)O3)c(=O)oc2c1 .
Return: FALSE

Enquiry: Please indicate whether the reported absorption maximum of Cc1nc2cccc(-c3nc4ccccc4s3)c2c(=O)[nH]1 is strictly below 500 nm.
Return: TRUE

Enquiry: Problem: For the compound CCn1c2ccccc2c2cc(-c3cc(-c4ccc5c(c4)c4ccccc4n5CC)nc(SC)n3)ccc21 , is absorption maximum under 500 nm?
Return: TRUE

Enquiry: Dear colleague, could you confirm whether absorption maximum of CCC1(CC)c2ccccc2-c2ccc(C#Cc3ccc4ccc5cccc6ccc3c4c56)cc21 falls below 500 nm? Thanks.
Return: TRUE

Enquiry: Could you please tell me whether absorption maximum recorded for CN(C)c1ccc(/C=C/C=C2\CCCC2=O)cc1 is less than 500 nm?
Return: TRUE

Enquiry: Is the reported absorption maximum for c1ccc(N(c2ccccc2)c2ccc3c(ccc4nc5ccc6cc(N(c7ccccc7)c7ccccc7)ccc6c5nc43)c2)cc1 strictly below 500 nm?
Return: TRUE

====

- EXPERIMENT SUMMARY: solvent given as SMILES
- EXPERIMENTAL CONDITIONS: in ClC(Cl)Cl
READOUT LABEL: absorption maximum (nm)
Numbers only here, please. The scale is nm.

// known answers, use as guide
1) N#Cc1nc(N(Cc2ccccc2Br)Cc2ccccc2Br)c(C#N)nc1N(Cc1ccccc1Br)Cc1ccccc1Br: 485
2) CC1=C(/C=C/c2ccccc2)C(C)=[N+]2C1=C(c1ccccc1)c1c(C)c(/C=C/c3ccccc3)c(C)n1[B-]2(F)F: 575
3) CCC(CC)c1ccc2cc3c([o+]c2c1)/C(=C/Cc1ccccc1)CCC3: 616

Proceed to the following item.
Enquiry: State its absorption maximum for this compound: FC(F)(F)c1ccc2oc3nc4oc5ccc(N6c7ccccc7Oc7ccccc76)cc5c4cc3c2c1
Return: 344

====

- EXPERIMENT SUMMARY: solvent given as SMILES
- EXPERIMENTAL CONDITIONS: in CO
READOUT LABEL: absorption maximum
Include the unit right after the number.

Answered cases to consult:
1) Cc1ccc2ccc3c(C)ccc4ccc1c2c43: 344 nm
2) COc1c2ccccc2c(OC)c2c1c1c(C)ccc(OC)c1n2C: 414 nm
3) CN(C)c1ccc(C2=Cc3cccc[n+]3[B-](F)(F)O2)cc1: 418 nm
4) CCC1=C(C)C(=O)n2c1cc1c(CCC(=O)OC)c(C)c(C)n1c2=O: 426 nm
5) N#CC(C#N)=C(/C=C/c1cc2c3c(c1)CCCN3CCC2)c1ccc2c3c(cccc13)CC2: 541 nm

Enquiry: Read off the recorded absorption maximum for CN(C)c1ccc2c(c1)C(=O)NC2=O
Return: 396 nm

Enquiry: Using the record for Oc1cc2ccc3cc(O)cc4ccc(c1)c2c34 , state its measured absorption maximum.
Return: 381 nm

Enquiry: Read the entry CC1=CC(C)=[N+]2C1=C(c1ccc(-c3ccc(OS(=O)(=O)c4ccc([N+](=O)[O-])cc4[N+](=O)[O-])cc3)s1)c1c(C)cc(C)n1[B-]2(F)F and write its reported absorption maximum.
Return: 512 nm

Enquiry: Specify reported absorption maximum for the compound shown: c1ccc(-c2cc(-c3ccc4ccc5c(-c6ccnc(-c7ccccn7)c6)ccc6ccc3c4c65)ccn2)nc1
Return: 363 nm

Enquiry: Find the measured absorption maximum of COc1ccc(-c2cc(-c3ccc(OC)cc3)c3c(N)nc(N4CCCC4)c(C#N)c3n2)cc1 and report it.
Return: 412 nm

Enquiry: Identify measured absorption maximum associated with CN(C)c1ccc(C(=O)c2ccccc2)cc1
Return: 355 nm

Enquiry: For the compound CC1=C2C=CC=[N+]2[B-](F)(F)n2cccc21 , report absorption maximum.
Return: 494 nm

Enquiry: Find the measured absorption maximum of CN(CCO)c1ccc(/C=C/C2=C(C#N)C(C(C#N)C#N)OC2(C)C)cc1 (stereo not drawn) and report it.
Return: 575 nm

====

- EXPERIMENT SUMMARY: solvent given as SMILES
- EXPERIMENTAL CONDITIONS: in CO
In this section, each of the molecules is paired with its reported absorption maximum.
The figure you give is taken to be in nm; do not add the unit.

Enquiry: Let me know recorded absorption maximum for Cc1ccc(C2=C3C=CC=[N+]3[B-](F)(F)n3cccc32)cc1 , thanks.
Return: 496

====

- EXPERIMENT SUMMARY: solvent given as SMILES
- EXPERIMENTAL CONDITIONS: in CS(C)=O
READOUT LABEL: absorption maximum (nm)
Just the number in nm, nothing appended.

Please review the following examples before continuing.
1. CC1(C)C(/C=C/C=C/c2cc3ccc(O)cc3oc2=O)=[N+](CCCS(=O)(=O)[O-])c2ccccc21: 491
2. Cn1c(=O)c(/N=N/c2cc(S(=O)(=O)O)ccc2C(=O)O)c(O)c2ccccc21: 417
3. COc1ccccc1-c1nc(-c2ccc(C(F)(F)F)cc2)n(-c2ccc(C)cc2)c1-c1ccccc1OC: 286

Enquiry: Recall and state the measured absorption maximum for CCN(CC)c1ccc2cc(-c3csc(NC(C)=O)c3C#N)c(=O)oc2c1 .
Return: 394

Enquiry: Give absorption maximum for NS(=O)(=O)c1ccc(N2N=C(c3ccc(O)cc3)CC2c2ccccc2)cc1 (configuration not stated)
Return: 364

Enquiry: Dear colleague, please send me the reported absorption maximum for CCCCN1\C(=C/C=C/C=C/C2=[N+](CCCC)c3ccc4cc(Br)ccc4c3C2(C)C)C(C)(C)c2c1ccc1cc(Br)ccc21 when you can.
Return: 692

====

Reported values of absorption maximum for individual entries
- EXPERIMENT SUMMARY: solvent given as SMILES
- EXPERIMENTAL CONDITIONS: in CN(C)C=O
Only the number, expressed in nm, is required.

1) CCCCCCCCN1c2ccccc2Sc2cc(/C=C/c3ccc(N(c4ccc(/C=C/c5ccc6c(c5)Sc5ccccc5N6CCCCCCCC)cc4)c4ccc(/C=C/c5ccc(/C=C/c6ccc(N(c7ccc(/C=C/c8ccc(N(c9ccccc9)c9ccccc9)cc8)cc7)c7ccc(/C=C/c8ccc(N(c9ccccc9)c9ccccc9)cc8)cc7)cc6)c6nsnc56)cc4)cc3)ccc21: 528

Enquiry: Note down absorption maximum recorded for CCN1\C(=C/C=C/C=C/C2=[N+](CC)c3ccc4ccccc4c3C2(C)C)C(C)(C)c2c1ccc1ccccc21
Return: 683

====

- EXPERIMENT SUMMARY: solvent given as SMILES
- EXPERIMENTAL CONDITIONS: in c1ccncc1
// NB: equality with 500 nm counts as condition not met; only absorption maximum strictly below is condition met

A selection of reference data follows.
1) CCCCCCCC(=O)Oc1ccc2c3cccc4c(OC(=O)CCCCCCC)ccc(c5cccc1c52)c43: condition met
2) CN(C)c1ccc(/C=C/C=C2\CCCC2=O)cc1: condition met
3) OC1(c2ccc(-c3cccs3)s2)CCC(c2ccccc2)CC1 (stereo unspecified): condition met
4) CN(C)c1ccc(/C=C2\CCCC2=O)cc1: condition met
5) [C-]#[N+]c1ccc(-c2ccc(N(C)C)cc2)cc1: condition met
6) OC1(c2ccc(-c3cccs3)s2)CCCCC1: condition met
7) CCCCC[n+]1ccc(/C=C/c2ccc(N(C)C)c3ccccc23)c2ccccc21: condition not met
8) CC1CCC(O)(c2ccc(-c3cccs3)s2)CC1 (stereo unspecified): condition met

Enquiry: I wonder whether Cc1c2oc3c(C)c(N)cc(C(=O)NC4OC(=O)C(C(C)C)N(C)C(=O)CN(C)C(=O)C5CCCN5C(=O)C(C(C)C)NC4=O)c3nc-2c(C(=O)NC2OC(=O)C(C(C)C)N(C)C(=O)CN(C)C(=O)C3CCCN3C(=O)C(C(C)C)NC2=O)c(N)c1=O (stereo unspecified) has absorption maximum below 500 nm. Can you tell?
Return: condition not met
